target.system: somatostatin receptors sub-type 5 (Homo sapiens)
Sequence (P35346 whole entry): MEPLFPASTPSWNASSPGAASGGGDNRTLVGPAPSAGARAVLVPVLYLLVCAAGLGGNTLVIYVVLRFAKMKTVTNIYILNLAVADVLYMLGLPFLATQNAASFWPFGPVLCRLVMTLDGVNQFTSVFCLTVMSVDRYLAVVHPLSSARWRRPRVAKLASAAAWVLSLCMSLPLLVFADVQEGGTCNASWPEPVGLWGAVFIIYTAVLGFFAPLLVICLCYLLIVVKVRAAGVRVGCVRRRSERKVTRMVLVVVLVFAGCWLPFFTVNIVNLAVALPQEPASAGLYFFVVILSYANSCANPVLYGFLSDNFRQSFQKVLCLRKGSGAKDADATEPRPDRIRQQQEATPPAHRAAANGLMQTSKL
pKi: −log10 of the molar value. Bridge positions count the residues as written; N and C are the ends. Square brackets hold non-standard residues; d marks the D form. Peptide text beside a SMILES is read from it. ξ: configuration not given here. dPhe(4-NO2) = N[C@H](Cc1ccc([N+](=O)[O-])cc1)C(=O)O; d2Nal = N[C@H](Cc1ccc2ccccc2c1)C(=O)O; Thr(3ξ) = CC(O)[C@H](N)C(=O)O
value.kind: pKi

Q. Request - read-out pKi | tested on somatostatin receptors sub-type 5 (Homo sapiens) | molecule CC(C)[C@@H]1NC(=O)[C@H](CCCCN)NC(=O)[C@@H](Cc2ccc([N+](=O)[O-])cc2)NC(=O)[C@H](Cc2ccc(O)cc2)NC(=O)[C@@H](NC(=O)[C@H](N)Cc2ccc3ccccc3c2)CSSC[C@@H](C(=O)N[C@H](C(N)=O)C(C)O)NC1=O (some centres unmarked) [Example 20] (H-[d2Nal]CY[dPhe(4-NO2)]KVC[Thr(3ξ)]-NH2; disulfide 2-7)
A. ≥ 6.00

Q. I'm curious: which pKi was measured for CC(C)[C@@H]1NC(=O)[C@H](CCCCN)NC(=O)[C@@H](Cc2cccs2)NC(=O)[C@H](Cc2ccc(O)cc2)NC(=O)[C@@H](NC(=O)[C@H](N)Cc2ccc3ccccc3c2)CSSC[C@@H](C(=O)N[C@H](C(N)=O)C(C)O)NC1=O (some centres unmarked) tested on somatostatin receptors sub-type 5 (Homo sapiens)?
A. ≥ 6.00
